Reference for the values: ChEMBL document CHEMBL3627677

- measured-on: UniProt:P27338
- Sequence (P27338 whole entry): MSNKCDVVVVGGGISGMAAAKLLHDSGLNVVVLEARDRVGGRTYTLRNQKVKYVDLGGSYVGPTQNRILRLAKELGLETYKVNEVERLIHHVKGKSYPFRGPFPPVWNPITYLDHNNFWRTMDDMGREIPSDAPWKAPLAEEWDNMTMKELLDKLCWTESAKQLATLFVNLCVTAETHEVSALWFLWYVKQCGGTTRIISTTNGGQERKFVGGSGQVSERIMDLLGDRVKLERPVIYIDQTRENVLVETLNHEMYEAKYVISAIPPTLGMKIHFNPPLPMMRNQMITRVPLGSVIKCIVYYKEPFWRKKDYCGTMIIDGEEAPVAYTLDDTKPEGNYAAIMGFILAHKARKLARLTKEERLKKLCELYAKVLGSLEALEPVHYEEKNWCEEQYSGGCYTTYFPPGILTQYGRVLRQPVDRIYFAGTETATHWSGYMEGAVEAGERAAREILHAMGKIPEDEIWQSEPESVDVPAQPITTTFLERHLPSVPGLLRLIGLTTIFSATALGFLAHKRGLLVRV
- method-notes: Inhibition of recombinant human MAOB using p-tyramine as substrate assessed as H2O2 production preincubated for 15 mins followed by substrate addition by fluorometric analysis
pIC50: −log10 of the molar value.
Would you mind telling me the reported pIC50 of each entry?

(Q) Form: Entry = `COc1ccc(/C=C/c2cc(OC)cc(OC)c2/C=C/C(=O)c2cc3ccc(N(C)C)cc3oc2=O)cc1` | System = UniProt:P27338 | pIC50 = ____
(A) < 4.22

(Q) Form: Entry = `COc1ccc(/C=C/c2cc(OC)cc(OC)c2/C=C/C(=O)c2cc3cc(OC)ccc3oc2=O)cc1` | System = UniProt:P27338 | pIC50 = ____
(A) < 4.22

(Q) Form: Entry = `COc1ccc(/C=C/c2cc(OC)cc(OC)c2/C=C/C(=O)c2cc3cccc(Br)c3oc2=O)cc1` | System = UniProt:P27338 | pIC50 = ____
(A) < 4.22

----------
Would you mind telling me the reported Ratio IC50 of each entry?
- Species: Homo sapiens
- method-notes: Selectivity ratio of IC50 for recombinant human MAOB to IC50 for recombinant human MAOA

(Q) Give its Ratio IC50 value. Item: `COc1ccc(/C=C/c2cc(OC)cc(OC)c2/C=C/C(=O)c2cc3cccc(OC)c3oc2=O)cc1`
(A) < 0.37

(Q) Give its Ratio IC50 value. Item: `COc1ccc(/C=C/c2cc(OC)cc(OC)c2/C=C/C(=O)c2cc3ccc(Cl)cc3oc2=O)cc1`
(A) < 0.12

(Q) Give its Ratio IC50 value. Item: `COc1ccc(/C=C/c2cc(OC)cc(OC)c2/C=C/C(=O)c2cc3ccc(Br)cc3oc2=O)cc1`
(A) 18.4

(Q) Give its Ratio IC50 value. Item: `COc1ccc(/C=C/c2cc(OC)cc(OC)c2/C=C/C(=O)c2cc3ccccc3oc2=O)cc1`
(A) 0.22

(Q) Give its Ratio IC50 value. Item: `CCOc1cccc2cc(C(=O)/C=C/c3c(/C=C/c4ccc(OC)cc4)cc(OC)cc3OC)c(=O)oc12`
(A) > 18.8

(Q) Give its Ratio IC50 value. Item: `COc1ccc(/C=C/c2cc(OC)cc(OC)c2/C=C/C(=O)c2cc3ccc(C)cc3oc2=O)cc1`
(A) 0.05

(Q) Give its Ratio IC50 value. Item: `COc1ccc(/C=C/c2cc(OC)cc(OC)c2/C=C/C(=O)c2cc3cc(F)ccc3oc2=O)cc1`
(A) 0.23

(Q) Give its Ratio IC50 value. Item: `COc1ccc(/C=C/c2cc(OC)cc(OC)c2/C=C/C(=O)c2cc3cccc(C)c3oc2=O)cc1`
(A) < 0.33

(Q) Give its Ratio IC50 value. Item: `COc1ccc(/C=C/c2cc(OC)cc(OC)c2/C=C/C(=O)c2cc3c(OC)cccc3oc2=O)cc1`
(A) < 0.24

(Q) Give its Ratio IC50 value. Item: `COc1ccc(/C=C/c2cc(OC)cc(OC)c2/C=C/C(=O)c2cc3cc(Br)ccc3oc2=O)cc1`
(A) > 4.95

(Q) Give its Ratio IC50 value. Item: `COc1ccc(/C=C/c2cc(OC)cc(OC)c2/C=C/C(=O)c2cc3ccc(OC)cc3oc2=O)cc1`
(A) < 0.07
